Parameter Maximal MFI, fab-CypHer5E internalization, AU565: see the listing below.
- target desc: human epidermal growth factor receptor 2 (HER2), membrane-bound on cells (human, UniProt P04626 23-1255)
- test description: cell-based or functional assay
readout: Maximal MFI, fab-CypHer5E internalization, AU565 (MFI)

HuMab 098 (antibody, V domains shown, also called TH1014-098; PC1014-098) VH: EVQLLESGGGLVQPGGSLRLSCAASGFTFSNYGMSWVRQAPGKGLEWVSAISGSAYSTYYADSVKGRFTISRDNSKNTLWLQMNSLRAEDTAVYYCAKAHYHGSGSYYTLFDYWGQGTLVTVSS VL: DIQMTQSPSSLSASVGDRVTITCRASQGISSWLAWYQQKPEKAPKSLIYAASSLQSGVPSRFSGSGSGTDFTLTISSLQPEDFATYYCQQYNSYPYTFGQGTKLEIK ... 135000
HuMab 025 (antibody, V domains shown, also called TH1014-025; PC1014-025) VH: QVQLQQWGAGLLKPSETLSLTCAVYGGSFSDYYWNWIRQPPGKGLEWIGEIHHSGSTNYNPSLKSRVTISVDTSKNQFSLKLSSVTAADTAVYYCARGYYDSGVYYFDYWAQGTLVTVSS VL: DIQMTQSPSSLSASVGDRVTITCRASQGISRWLAWYQQKPEKAPKSLIYAASSLRSGVPSRFSGSGSGTDFTLTISSLQPEDFATYYCQQYNSYPITFGQGTRLEIK ... 63400
HuMab 091 (antibody, V domains shown, also called TH1014-091; PC1014-091) VH: QVQLQQWGAGLLKPSETLSLTCAVSGGSFSGYYWTWIRQPPGKGLEWIGEIYHSGDTNYNPSLKSRVTISVDTSKNQFSLKLYSVTAADTAVYYCARLYFGSGIYYLDYWGQGTLVTVSS VL: DIQMTQSPSSLSASVGDRVTITCRASQGISSWLVWYQQKPEKAPKSLIYAASSLQSGVPSRFSGSGSGTDFTLTISSLQPEDFATYYCQQYNSFPPTFGQGTKVEIK ... 50700
